Documented Sensitisation Ratio across a set of compounds
- Tested on: UT-SCC-74B tumours
- Procedure Details: Tumour radiosensitisation: ex vivo clonogenic assay
- Format: in vivo, NIH-III mice
- Conditions Used: 2.2 mmol/kg i.v. 5 min prior to 10 Gy radiation, surviving fraction after radiation/surviving fraction after drug + radiation
# print the numeric value only

A selection of reference data follows.
{"Compound": "O=C(Cn1ccnc1[N+](=O)[O-])NCCO [Compound 2, etanidazole, reference compound]", "Sensitisation Ratio": 8.94}
{"Compound": "O=[N+]([O-])c1nccn1CS(=O)(=O)NCCN1CCOCC1 [Compound 34]", "Sensitisation Ratio": 13.8}
{"Compound": "O=[N+]([O-])c1nccn1CS(=O)(=O)NCCOP(=O)(O)O [Compound 9]", "Sensitisation Ratio": 9.64}

Supply measured Sensitisation Ratio of O=[N+]([O-])c1cncn1CS(=O)(=O)NCCN1CCOCC1 [Compound 38] in your reply. 11.5

###

- Procedure Details: Plasma pharmacokinetics after single i.v. dose
- Assay type: in vivo
- Conditions Used: female, mouse, iv, NIH-III mice, 2.2 mmol/kg i.v.
Experimental Endpoint: AUC
Provide a numeric answer, followed by its unit.

Output AUC of O=[N+]([O-])c1nccn1CS(=O)(=O)NCCN1CCOCC1 [Compound 34] 960 µM·h

###

- Procedure Details: Plasma pharmacokinetics after single i.v. dose
- Format: in vivo
- Conditions Used: female, mouse, iv, NIH-III mice, 2.2 mmol/kg i.v.
Experimental Endpoint: Cmax (µM)
Answer format: numeric, µM implied, no suffix.

Specify measured Cmax for O=[N+]([O-])c1nccn1CS(=O)(=O)NCCN1CCOCC1 [Compound 34] . 1530

###

Experimental Endpoint: melting point

{"Compound": "O=[N+]([O-])c1nccn1CCNS(=O)(=O)CCO", "Experimental Endpoint": "melting point", "Reading": "124 to 127 °C"}

Identify the reported melting point for the following entry. O=[N+]([O-])c1nccn1CS(=O)(=O)NC(CO)C(O)CO (stereo not shown) 128 to 131 °C

Look up melting point of O=[N+]([O-])c1nccn1CCS(=O)(=O)NCC(O)CO (stereo not shown) and report it. 120 to 123 °C

Identify melting point associated with the compound O=[N+]([O-])c1nccn1CS(=O)(=O)NCC(O)CO (stereo not shown) 127 to 129 °C

###

- System: HCT116/54C cells
- Procedure Details: In vitro cytotoxicity, 4 h exposure oxic/anoxic, 5-day regrowth, sulforhodamine B
- Format: cell-based, human
- Conditions Used: HCT116/54C, IC50(oxic)/IC50(anoxic)
Experimental Endpoint: HCR

{"Compound": "Cc1ncc([N+](=O)[O-])n1CCS(=O)(=O)NCCCN1CCOCC1 [Compound 44]", "HCR": ">2.0"}
{"Compound": "O=[N+]([O-])c1nccn1CCS(=O)(=O)NCC(O)CO (stereo not shown) [Compound 15]", "HCR": ">1.9"}
{"Compound": "COCCNS(=O)(=O)CCn1cncc1[N+](=O)[O-] [Compound 39]", "HCR": ">1.9"}

State its HCR for this compound: O=[N+]([O-])c1cncn1CCS(=O)(=O)NCCO [Compound 8] >2.4

###

- Tested on: UT-SCC-74B cells
- Procedure Details: In vitro cytotoxicity, 4 h exposure oxic/anoxic, 5-day regrowth, sulforhodamine B
- Type: cell-based, human
- Conditions Used: IC50(oxic)/IC50(anoxic)
Experimental Endpoint: HCR

Would you please look over these solved cases?
{"Molecule": "O=[N+]([O-])c1nccn1CCS(=O)(=O)NCCO [Compound 6]", "HCR": ">6.6"}
{"Molecule": "Cc1ncc([N+](=O)[O-])n1CCS(=O)(=O)NCCO [Compound 41]", "HCR": ">1.5"}
{"Molecule": "O=[N+]([O-])c1cncn1CCS(=O)(=O)NCCO [Compound 8]", "HCR": ">2.0"}

Using the record for O=[N+]([O-])c1nccn1CCNS(=O)(=O)CCO [Compound 17] , state its measured HCR. >6.8
